In this section we review reported pIC50 values for a set of compounds.
Target: human EphB2-His ectodomain - human EphrinB2-Fc ectodomain (EphB2-EphrinB2 tetramer) (Homo sapiens, UniProt P29323+P52799)
Sequence (P52799 28-229): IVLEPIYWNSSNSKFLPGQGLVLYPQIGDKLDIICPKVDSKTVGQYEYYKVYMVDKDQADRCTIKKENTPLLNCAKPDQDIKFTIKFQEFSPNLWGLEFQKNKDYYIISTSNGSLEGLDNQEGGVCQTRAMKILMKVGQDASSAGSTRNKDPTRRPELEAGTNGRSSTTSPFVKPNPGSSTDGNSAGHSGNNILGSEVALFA
Sequence (P29323 19-543): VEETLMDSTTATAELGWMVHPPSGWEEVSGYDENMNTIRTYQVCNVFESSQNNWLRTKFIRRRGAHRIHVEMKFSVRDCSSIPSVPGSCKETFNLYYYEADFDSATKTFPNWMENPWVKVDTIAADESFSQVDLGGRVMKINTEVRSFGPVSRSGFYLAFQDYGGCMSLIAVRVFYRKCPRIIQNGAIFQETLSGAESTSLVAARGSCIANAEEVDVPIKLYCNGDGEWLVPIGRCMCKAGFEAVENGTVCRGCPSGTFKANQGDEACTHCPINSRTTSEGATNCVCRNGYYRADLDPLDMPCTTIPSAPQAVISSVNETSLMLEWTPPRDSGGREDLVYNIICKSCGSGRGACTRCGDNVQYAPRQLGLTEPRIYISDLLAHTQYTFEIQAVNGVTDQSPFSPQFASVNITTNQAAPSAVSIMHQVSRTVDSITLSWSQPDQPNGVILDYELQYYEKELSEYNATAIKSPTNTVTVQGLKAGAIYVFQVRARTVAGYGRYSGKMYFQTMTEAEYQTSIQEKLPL
Test: biochemical
Conditions: Octet IC50 data EB2-EphB2 (Absolute)
Scale for pIC50: -log10 of concentration given in mol/L; no unit attached.

Answered cases to consult:
* Clc1cc2c(c3ncccc13)OCN(CCC1=CCCCC1)C2 [compound 12] | 6.18
* Clc1cc2c(c3ncccc13)OCN(Cc1cccnc1)C2 [compound 2] | 6.07

(Q) Look up pIC50: CC(c1ccccc1)N1COc2c(cc(Cl)c3cccnc23)C1 (stereo not drawn) [compound 10]
(A) 6.05
